Source: patent US10087187B2

studySystem: PIK3Cδ_h (Homo sapiens (Human))
Sequence (O00329 whole entry): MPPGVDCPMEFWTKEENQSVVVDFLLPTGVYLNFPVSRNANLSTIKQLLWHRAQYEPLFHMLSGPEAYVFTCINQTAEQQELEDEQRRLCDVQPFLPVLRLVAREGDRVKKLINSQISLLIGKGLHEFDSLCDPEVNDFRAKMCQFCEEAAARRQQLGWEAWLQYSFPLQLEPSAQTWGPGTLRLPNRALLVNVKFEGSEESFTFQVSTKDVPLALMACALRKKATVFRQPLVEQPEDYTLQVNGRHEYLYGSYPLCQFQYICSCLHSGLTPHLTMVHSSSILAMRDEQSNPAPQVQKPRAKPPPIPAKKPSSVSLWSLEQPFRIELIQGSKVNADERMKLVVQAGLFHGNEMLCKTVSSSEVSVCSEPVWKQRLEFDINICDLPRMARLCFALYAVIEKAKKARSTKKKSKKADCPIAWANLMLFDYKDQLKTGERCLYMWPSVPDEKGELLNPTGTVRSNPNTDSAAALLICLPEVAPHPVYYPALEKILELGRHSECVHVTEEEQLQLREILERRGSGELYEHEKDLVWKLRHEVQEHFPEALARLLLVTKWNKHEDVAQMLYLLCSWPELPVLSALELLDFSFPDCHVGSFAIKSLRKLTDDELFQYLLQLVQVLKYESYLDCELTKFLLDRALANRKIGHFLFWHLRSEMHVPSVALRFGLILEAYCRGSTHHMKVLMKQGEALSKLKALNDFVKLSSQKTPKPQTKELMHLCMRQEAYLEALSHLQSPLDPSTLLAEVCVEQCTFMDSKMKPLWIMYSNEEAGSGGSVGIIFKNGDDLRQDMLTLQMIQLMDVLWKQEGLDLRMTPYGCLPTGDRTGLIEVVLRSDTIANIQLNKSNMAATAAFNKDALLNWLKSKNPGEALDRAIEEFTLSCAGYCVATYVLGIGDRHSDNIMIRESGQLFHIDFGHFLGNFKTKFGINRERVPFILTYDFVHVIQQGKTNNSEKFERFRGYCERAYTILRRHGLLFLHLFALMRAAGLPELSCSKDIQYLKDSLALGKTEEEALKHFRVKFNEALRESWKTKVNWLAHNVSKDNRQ
Entries and their measured Kd follow.
Entry rule: numbers only, all in nM.

Worked cases, Kd given:
{"columns": ["compound", "studySystem", "Kd / nM"],
 "data": [
  ["Cc1nc2c(N)cc(N3CCOCC3)nn2c1Nc1cccc(C(F)(F)F)c1CN1CCCC1", "PIK3Cδ_h (Homo sapiens (Human))", 35],
  ["Cc1nc2c(C(=O)O)cc(N3CCOC(C)C3)nn2c1Cc1cccc(C(F)(F)F)c1C (stereo not drawn)", "PIK3Cδ_h (Homo sapiens (Human))", 83],
  ["Cc1nc2c(C(=O)O)cc(C3=CCOCC3)nn2c1Cc1cccc(C(F)(F)F)c1C", "PIK3Cδ_h (Homo sapiens (Human))", 200],
  ["Cc1c(Cc2c(CO)nc3c(N)cc(N4CCOCC4)nn23)cccc1C(F)(F)F [Compound 14]", "PIK3Cδ_h (Homo sapiens (Human))", 207],
  ["Cc1c(F)cccc1Cc1c(CNCCO)nc2c(N)cc(N3CCOCC3)nn12", "PIK3Cδ_h (Homo sapiens (Human))", 200],
  ["Cc1nc2c(-c3ncc[nH]3)cc(N3CCOCC3)nn2c1Nc1cccc(C(F)(F)F)c1C", "PIK3Cδ_h (Homo sapiens (Human))", 81]
]}

Please provide the recorded Kd for Cc1nc2c(N)cc(N3CCOCC3)nn2c1Cc1cccc2c1CNCC2 , tested on PIK3Cδ_h (Homo sapiens (Human)). 98

Please provide the recorded Kd for Cc1nc2c(N)cc(N3CCOCC3)nn2c1Nc1cccc(C(F)(F)F)c1CN1CC(O)C1 , tested on PIK3Cδ_h (Homo sapiens (Human)). 40

Please provide the recorded Kd for Cc1c(Cc2c(CO)nc3c(N)cc(N4CCOCC4)nn23)cccc1C(F)(F)F [Compound 14c] , tested on PIK3Cδ_h (Homo sapiens (Human)). 194
